Each record here notes measured pIC50.
- assayed.system: human PD-1 (Jurkat-PD-1 cells) / PE-labeled human PD-L1-Ig (Homo sapiens)
- Construct: expressed in transfected cells; host or cells: Jurkat cell line over-expressing human PD-1
- Sequence (Q15116 25-288): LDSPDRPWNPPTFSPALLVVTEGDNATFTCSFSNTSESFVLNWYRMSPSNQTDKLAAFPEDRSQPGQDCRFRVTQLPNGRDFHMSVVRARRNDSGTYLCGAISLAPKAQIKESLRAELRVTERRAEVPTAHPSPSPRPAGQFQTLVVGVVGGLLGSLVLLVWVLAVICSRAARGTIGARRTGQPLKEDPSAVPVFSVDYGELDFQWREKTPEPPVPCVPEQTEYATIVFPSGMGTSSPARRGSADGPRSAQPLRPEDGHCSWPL
- protocol.text: Jurkat-PD-1 Cell Binding High-Content Screening Assay (CBA); Jurkat hPD1-PDL1 assay
- reported.conditions: Jurkat cell line over-expressing human PD-1; PE-labeled PD-L1-Ig 20 nM final; compound incubated 2 hours at 37° C.; read-out: Jurkat HPD1-PDL1 IC50
pIC50: −log10 of the molar value. Positions of bridges follow the written chain, without caps; N, C: chain ends. Non-standard residues stand in square brackets, D forms with d. Residues, ends and D or L forms follow the SMILES beside them. Bip = N[C@@H](Cc1ccc(-c2ccccc2)cc1)C(=O)O; NMeF = CN[C@@H](Cc1ccccc1)C(=O)O; NMeA = CN[C@@H](C)C(=O)O; Sar = CNCC(=O)O
experimental.readout: pIC50

molecule="CC(C)C[C@@H]1NC(=O)[C@H](CCCNC(=N)N)NC(=O)[C@H](Cc2ccccc2)N(C)C(=O)[C@H](C)N(C)C(=O)[C@H](CCCNC(=N)N)NC(=O)[C@H](Cc2ccc(-c3ccccc3)cc2)NC(=O)[C@H](C(C)C)NC(=O)[C@H](Cc2c[nH]c3ccccc23)NC(=O)[C@H](CC(=O)O)NC(=O)[C@H](Cc2ccc(O)cc2)NC(=O)[C@H](Cc2ccccc2)N(C)C(=O)CSC[C@@H](C(=O)NCC(N)=O)NC(=O)[C@H](CO)NC(=O)[C@H](C(C)C)NC1=O [Example 1250] ({CH2CO}-[NMeF]YDWV[Bip]R[NMeA][NMeF]RLVSCG-NH2; thioether N-14)" assayed_system="human PD-1 (Jurkat-PD-1 cells) / PE-labeled human PD-L1-Ig (Homo sapiens)" experimental_readout=pIC50 measured_result=6.49
molecule="CC(C)C[C@@H]1NC(=O)[C@H](Cc2c[nH]c3ccccc23)NC(=O)[C@H](CC(=O)O)NC(=O)[C@H](Cc2ccc(O)cc2)NC(=O)[C@H](Cc2cnc[nH]2)NC(=O)CSC[C@@H](C(=O)NCC(N)=O)NC(=O)[C@H](CO)NC(=O)[C@H](C(C)C)NC(=O)[C@H](CC(C)C)NC(=O)[C@H](CC(N)=O)NC(=O)CN(C)C(=O)[C@H](C)N(C)C(=O)[C@H](C(C)C)NC(=O)[C@H](Cc2ccc(-c3ccccc3)cc2)NC1=O [Example 1150] ({CH2CO}-HYDWL[Bip]V[NMeA][Sar]NLVSCG-NH2; thioether N-14)" assayed_system="human PD-1 (Jurkat-PD-1 cells) / PE-labeled human PD-L1-Ig (Homo sapiens)" experimental_readout=pIC50 measured_result=6.16
